Target: Gal(b1-4)GlcNAc(b1-2)[Gal(b1-4)GlcNAc(b1-6)]Man(a1-6)[Gal(b1-4)GlcNAc(b1-2)Man(a1-3)]Man(b1-4)GlcNAc(b1-4)[Fuc(a1-6)]GlcNAc
Experiment: glycan array binding signal (z-score within array); higher = stronger binding
Details: glycan notation: IUPAC condensed, linker removed
The entries come from a sample that favours the strongest signals as a whole.
QUANTITY: glycan array binding signal (z-score)
One number for each entry.

Recorded glycan array binding signal (z-score), per entry:
{"columns": ["BINDER", "glycan array binding signal (z-score)"],
 "data": [
  ["XTP3-B-MRH1 (Homo sapiens), Q96DZ1 (protein) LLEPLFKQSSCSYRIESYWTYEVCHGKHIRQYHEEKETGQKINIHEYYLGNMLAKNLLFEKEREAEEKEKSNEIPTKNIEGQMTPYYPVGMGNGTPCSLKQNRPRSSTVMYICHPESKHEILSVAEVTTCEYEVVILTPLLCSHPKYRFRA", 1.61],
  ["PNA (Arachis hypogaea), P02872 (protein) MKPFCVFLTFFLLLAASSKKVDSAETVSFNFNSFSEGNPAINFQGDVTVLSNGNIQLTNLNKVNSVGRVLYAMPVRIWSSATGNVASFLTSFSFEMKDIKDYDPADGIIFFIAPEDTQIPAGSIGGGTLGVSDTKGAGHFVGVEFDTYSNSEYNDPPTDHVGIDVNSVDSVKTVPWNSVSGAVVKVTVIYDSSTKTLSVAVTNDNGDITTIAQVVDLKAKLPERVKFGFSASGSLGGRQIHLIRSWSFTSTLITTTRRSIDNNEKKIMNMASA", -0.186]
]}

Turning to the following binder.
Lab note: measured glycan array binding signal (z-score) of CFEM-PPl (Pichia pastoris), F2QPV1 (protein) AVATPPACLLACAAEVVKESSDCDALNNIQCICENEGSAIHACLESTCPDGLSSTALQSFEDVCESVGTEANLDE was 0.199
